target: NADPH oxidase 2 (Homo sapiens); assay: NOX2-dependent H2O2 signal modulators, primary screen, NOX inhibitor project, cell-based, HEK293-NOX2, PMA-stimulated, Amplex Red fluorescence (AID 1159); settings: 45 min, higher = more signal, called active from +8 up or from −8 down; also: test concentration not given here
Categories are defined by ranges of z-score, namely bin 0 = under -0.7, bin 1 = from -0.7 up to 0.08, bin 2 = 0.08 and over

molecule: COCCNC(=O)OCC1CCCC2(CC(OC(=O)NCc3cccc4ccccc34)CC(CCC(=O)N[C@@H](C)C(=O)OC)O2)O1 (stereo partly specified)
tgt: NADPH oxidase 2 (Homo sapiens)
class-assignment: bin 1
--
molecule: CO[C@@H](C(C)C)[C@@H](C)C1OC(=O)CC1O (stereo partly specified)
tgt: NADPH oxidase 2 (Homo sapiens)
class-assignment: bin 2
--
molecule: CC(CCN1CCc2nc(-c3ccccc3)c(-c3ccccc3)cc2C1)=NO[C@@H](C)c1cc(-c2c(C)cc(C)cc2C)no1
tgt: NADPH oxidase 2 (Homo sapiens)
class-assignment: bin 0
--
molecule: C=CC[C@@H]1C=C[C@H](ON=C(C)CCN2CCCCc3nc(C)c(C)cc32)[C@@H](CO)O1
tgt: NADPH oxidase 2 (Homo sapiens)
class-assignment: bin 0
--
molecule: CC(CCN1CCCc2nc(C)c(C)cc21)=NOC[C@@H](O)COCc1ccco1
tgt: NADPH oxidase 2 (Homo sapiens)
class-assignment: bin 0

The entry to classify is `CCN1C(=O)[C@H]2[C@H]3[C@H](O)[C@H](O)CC(=NO[C@H](C)c4cn([C@H](CO)Cc5ccccc5)nn4)[C@@H]3CC[C@H]2C1=O` ; which class holds it? bin 2

# bin label for COc1ccc(OC[C@@H]2CC3[C@@H](c4ccc(Br)cc4)[C@H](C)CC[C@H]3C(=O)O2)cc1 (stereo partly specified) bin 0

Using the reported z-score, which band applies to `COC(=O)[C@H](Cc1ccccc1)NC(=O)[C@@H](C)CO` ? bin 2

Which category does the recorded z-score put `CC(CCN1CCCc2nc(C)c(C)cc21)=NO[C@H](C)c1cn([C@@H]2COC[C@H]2O)nn1` in? bin 1

Each molecule maps to one class by z-score. Which class for COC(=O)[C@H](C)NC(=O)CCC1CC(OC(=O)NCc2cccc3ccccc23)CC2(CCCC(COC(=O)NCCCN3CCCC3=O)O2)O1 (stereo partly specified) ? bin 1

For this molecule, which bin applies? `CC(C)CON=C1C[C@@H](O)[C@@H](O)[C@@H]2[C@@H]3C(=O)N(Cc4ccccc4)C(=O)[C@@H]3CC[C@H]12` bin 2

Please classify: `O=C1[C@H]2[C@H]3[C@H](O)[C@H](O)CC(=NOCc4ccccc4)[C@@H]3CC[C@H]2C(=O)N1c1cccc(Oc2ccccc2)c1` bin 0

Category of `O=C1C2=CC[C@H]3C(=O)N(c4ccc(F)cc4F)C(=O)[C@H]3[C@H]2[C@H](O)[C@@H]2O[C@H]12` : bin 2

Pick a category. Item: `O=C1C[C@@H](O)[C@@H](O)[C@@H]2[C@@H]3C(=O)N(C4CCCCC4)C(=O)[C@@H]3CC[C@@H]12` bin 1

Bin? CCOC(=O)[C@H](CC(C)C)NC(=O)CCC1CC(OC(=O)NCc2ccc3c(c2)OCO3)CC2(CCCC(COC(=O)NCCOc3ccccc3)O2)O1 (stereo partly specified) bin 2

---

molecular target: Torsin-1A-interacting protein 2 (Homo sapiens) (UniProt Q8NFQ8); assay: LULL1 binders on small-molecule microarray, primary screen, cell lysate, human LULL1 lysate, 635/667 nm fluorescence (AID 1092); settings: hLULL1 lysate binding, 635 nm fluorescence, higher = more signal;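 also: probe is lysate of COS7 cells overexpressing human LULL1; score merges per-feature 667 nm fluorescence with signal-to-noise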
Sequence (Q8NFQ8 whole entry, looked up): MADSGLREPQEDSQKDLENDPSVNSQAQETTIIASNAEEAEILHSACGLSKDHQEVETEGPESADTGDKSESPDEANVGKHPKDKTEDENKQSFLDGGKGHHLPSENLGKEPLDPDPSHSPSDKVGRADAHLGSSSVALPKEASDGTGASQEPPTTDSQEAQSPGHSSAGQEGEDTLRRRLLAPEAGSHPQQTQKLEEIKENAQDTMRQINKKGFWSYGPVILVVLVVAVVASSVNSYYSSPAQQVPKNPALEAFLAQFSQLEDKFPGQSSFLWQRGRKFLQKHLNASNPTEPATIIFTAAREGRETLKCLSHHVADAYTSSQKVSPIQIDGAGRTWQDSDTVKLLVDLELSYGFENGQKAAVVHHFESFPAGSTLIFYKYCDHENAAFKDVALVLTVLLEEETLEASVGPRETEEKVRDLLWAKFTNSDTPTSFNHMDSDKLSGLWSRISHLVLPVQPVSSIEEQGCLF
property-label: composite z-score
// print number alone

These recorded examples may help you get a feel for the data.
compound: CCN1C(=O)[C@H]2[C@H]3[C@H](O)[C@H](O)CC(=NOC[C@@H](O)[C@H]4O[C@@H]5OC(C)(C)O[C@@H]5[C@H]4O)[C@@H]3CC[C@H]2C1=O
composite z-score: -0.0973

compound: COC(=O)[C@H](C)NC(=O)CCC1CC(OC(=O)NCc2ccc3c(c2)OCO3)CC2(CCCC(COC(=O)NCCC(C)C)O2)O1 (some centres not stated)
composite z-score: 2.28

compound: CC(C)CON=C1C[C@@H](O)[C@@H](O)[C@@H]2[C@@H]3C(=O)N([C@@H](C)c4ccccc4)C(=O)[C@@H]3CC[C@@H]12
composite z-score: 0.246

compound: CC(C)=CCCC(C)=CCON=C1[C@H]2CCn3c(=O)n(-c4ccccc4)c(=O)n3[C@H]2[C@H](O)[C@@H]2O[C@H]12
composite z-score: 2.36

compound: O=C(NN=C1C[C@@H](O)[C@@H](O)[C@@H]2[C@@H]3C(=O)N(Cc4ccc5c(c4)OCO5)C(=O)[C@@H]3CC[C@@H]12)OCc1ccccc1
composite z-score: 0.418

Query `C=C(C)C(=O)OC[C@H]1CN2[C@@H](CC[C@@H](C)[C@@H]2c2ccc(Br)cc2)C(=O)O1` yields composite z-score of 0.162

Reported composite z-score for COC(=O)C(C(=O)OC)C1CCCC(=O)C1 (configuration not stated) was 0.291

---

target: Alpha-bungarotoxin (Bungarus multicinctus); test: alpha-bungarotoxin binders on microarray, profiling panel, artefact control for SMM control protein annotation, biochemical, small-molecule microarray, Alexa647 label, 635/667 nm fluorescence (AID 1117); conditions: alpha-BTX-A647 binding fluorescence, higher = more signal
property-label: composite z-score
# print the numeric value only

Completed entries (count: 4):
molecule: O=C1CCCC=C1C(O)C1CCCCC1 (stereo unspecified)
measurement: -0.268
--
molecule: CC(=O)OC[C@H]1O[C@H](C#CCCc2ccccc2)C=C[C@@H]1OC(C)=O
measurement: 1.53
--
molecule: COC(=O)CC=C[C@@H](C)[C@@H](C=NOC(C)CN1CCCCc2nc(C)c(C)cc21)NS(=O)(=O)c1ccc(C)cc1 (stereo partly specified)
measurement: 0.363
--
molecule: C[C@@H]1CC[C@H]2C(=O)OC(CN3C(=O)c4ccccc4C3=O)CN2[C@H]1c1ccc(Br)cc1 (stereo partly specified)
measurement: 0.666

Query `COC(=O)CC=C1c2ccccc2[C@H](OC)[C@H]1C` yields composite z-score of -0.545

Reported composite z-score of `CC(C)=NOC[C@@H](O)[C@H]1O[C@@H]2OC(C)(C)O[C@@H]2[C@H]1O` : 0.154

---

biological target: Streptavidin (Streptomyces avidinii) (UniProt P22629); assay: streptavidin binders on small-molecule microarray, primary screen, artefact control for SMM compound annotation, biophysical, 635/667 nm fluorescence (AID 1147); settings: streptavidin binding, higher = more signal;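 also: signal reflects streptavidin binding to arrayed compounds as a control protein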
Sequence (P22629 whole entry, looked up): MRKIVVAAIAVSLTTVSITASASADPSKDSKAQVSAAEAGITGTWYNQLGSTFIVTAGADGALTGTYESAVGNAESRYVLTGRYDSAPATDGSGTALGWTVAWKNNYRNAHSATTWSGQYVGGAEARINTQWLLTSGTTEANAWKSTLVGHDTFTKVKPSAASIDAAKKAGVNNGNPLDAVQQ
property-label: composite z-score
Answer with the value's number alone.

compound: CC(C)=CCCC(C)=CCON=C1C[C@@H](O)[C@@H](O)[C@@H]2[C@@H]3C(=O)N(Cc4ccc5c(c4)OCO5)C(=O)[C@@H]3CC[C@H]12
tgt: Streptavidin (Streptomyces avidinii) (UniProt P22629)
measurement: 0.133
--
compound: O=C1C2=CC[C@H]3C(=O)N(C4CCCCC4)C(=O)[C@H]3[C@H]2[C@H](O)[C@@H]2O[C@H]12
tgt: Streptavidin (Streptomyces avidinii) (UniProt P22629)
measurement: -0.408
--
compound: C[C@@H]1CC[C@H]2C(=O)O[C@@H](COc3ccc(C(C)(C)C)cc3)CN2[C@H]1c1ccc(Br)cc1
tgt: Streptavidin (Streptomyces avidinii) (UniProt P22629)
measurement: 0.0826
--
compound: CC(CCN1CCc2nc(-c3ccccc3)c(-c3ccccc3)cc2C1)=NO[C@@H](C)c1cc(-c2c(C)cc(C)cc2C)no1
tgt: Streptavidin (Streptomyces avidinii) (UniProt P22629)
measurement: 2.15
--
compound: CCCC[C@H]1CN2[C@@H](CC[C@@H](C)[C@@H]2c2ccc(Br)cc2)C(=O)O1
tgt: Streptavidin (Streptomyces avidinii) (UniProt P22629)
measurement: 0.426

composite z-score reported for this compound `CC(=O)OC[C@H]1O[C@H](CCON=C(C)C)C=C[C@@H]1OC(C)=O` : 0.17

Per the records, this compound ( CCOC(=O)[C@H](CC(C)C)NC(=O)CCC1CC(OC(=O)NCc2ccc3c(c2)OCO3)CC2(CCCC(COC(=O)NCCOc3ccccc3)O2)O1 (stereo partly specified) ) has composite z-score equal to 0.282

Reported composite z-score for `CC1(C)O[C@H]2O[C@H]([C@H](O)CON=C3[C@H]4CCn5c(=O)n(-c6ccccc6)c(=O)n5[C@H]4[C@H](O)[C@@H]4O[C@H]34)[C@H](O)[C@H]2O1` was 0.0676

Per the record, COC(=O)CC=C[C@@H](C)[C@@H](C=NOC(C)CN1CCCCc2nc(C)c(C)cc21)NS(=O)(=O)c1ccc(C)cc1 (stereo partly specified) has composite z-score of -0.343

Short answer for `CON=C(C)CCN1CCCc2nc(C)c(C)cc21` : composite z-score was 0.286

composite z-score for CCCCOC(OCCCC)C(O)CSc1ccc2ccccc2c1 (stereo unspecified) is 0.465

Recorded composite z-score (compound COC(=O)[C@H](C)NC(=O)CCC1CC(OC(=O)NCc2ccc3c(c2)OCO3)CC2(CCCC(COC(=O)NCc3ccccc3)O2)O1 (stereo partly specified) ): 0.115

The value of composite z-score measured for the compound `COC(=O)[C@@H]1CC[C@H](C)[C@@H](c2ccc(Br)cc2)N1C[C@@H](O)CN=[N+]=[N-]` turned out to be 0.398

Entry `CC[C@@H](c1ccccc1)n1c(=O)n2n(c1=O)[C@H]1[C@H](O)[C@@H]3O[C@@H]3C(=NOCc3ccccc3)[C@H]1CC2` ; composite z-score = 0.347

compound CCOC(=O)[C@H](CC(C)C)NC(=O)CCC1CC(OC(=O)NCCc2ccc(F)cc2)CC2(CCCC(COC(=O)NCCCN3CCCC3=O)O2)O1 (stereo partly specified) , composite z-score observed: 0.484

// composite z-score value for `CC(=O)OC[C@H]1O[C@H](CC=NOC[C@@H](O)[C@H]2O[C@@H]3OC(C)(C)O[C@@H]3[C@H]2O)C=C[C@@H]1OC(C)=O` : 0.168
